- assay_notes: Biodistribution of CorA to organs/tissues of CD-1 mice (LC-MS/MS)
- Type: in vivo
- condition: female, CD-1, mouse; lung; 60 mg/kg IP
readout_name: Cmax (ng/g)
Write down the numeric answer in ng/g and omit the unit.

Prompt: Requested field: Cmax. Item: C/C=C/C/C=C(\C)C(O)CC/C(C)=C/C=C(\C)C(=O)c1c(O)cc([C@H](C)CC/C=C/NC(=O)OC)oc1=O (stereo partly shown) [CorA, Corallopyronin A]
Completion: 3100

----------
- assay_notes: Pharmacokinetics of CorA in plasma of CD-1 mice
- Format: in vivo
- condition: female, mouse; plasma; 100 mg/kg IP; CD-1 mice; mean ± SD
- Experimental: For pharmacokinetic (PK) experiments, 6–8-week-old outbred female CD-1 mice (Charles River, Germany) were used. CorA was dissolved in PEG400/phosphate-buffered saline (PBS) (80:20 (v/v)). […] CorA plasma concentrations were quantified by HPLC-DAD with an Alliance e2695 separation module and a 2998 PDA detector (Waters, Eschborn, Germany). […] The supernatant was transferred into a HPLC vial and a sample volume of 5 µL was injected and quantified at a wavelength of 300 nm. […]
readout_name: MRT (h)
Write down the numeric answer in h and omit the unit.

Prompt: Requested field: MRT. Item: C/C=C/C/C=C(\C)C(O)CC/C(C)=C/C=C(\C)C(=O)c1c(O)cc([C@H](C)CC/C=C/NC(=O)OC)oc1=O (stereo partly shown) [CorA, Corallopyronin A]
Completion: 2.51

Origin of values: paper PMC9860980
